# experiment: Cytotoxicity against human MT4 cells assessed as reduction in cell viability incubated for 5 days by MTT assay
# Type: cell-based
# experimental.parameters: time 5 day
metric.name: CC50 at 120 h

Cc1cc(C#N)cc(C)c1Oc1nc(Nc2ccc(C#N)cc2)nc(N)c1Br [ETRAVIRINE] :: > 4.59 µM
Cc1cc(C#N)cc(C)c1Oc1nc(NC2CCN(CC(=O)N3CCOCC3)CC2)nc2ccoc12 :: 125 µM
Cc1cc(C#N)cc(C)c1Oc1nc(NC2CCN(CCN3CCOCC3)CC2)nc2sccc12 :: 37.9 µM
Cc1cc(C#N)cc(C)c1Oc1nc(NC2CCN(CCN3CCOCC3)CC2)nc2scnc12 :: 88.6 µM
Cc1cc(C#N)cc(C)c1Oc1nc(NC2CCN(CC(=O)N3CCOCC3)CC2)nc2c1CSC2 :: 64.6 µM

Record `COc1cc2nc(NC3CCN(CC(=O)N4CCOCC4)CC3)nc(Oc3c(C)cc(C#N)cc3C)c2cc1OC` . Reported CC50 at 120 h: 211 µM

// sample Nc1ccn([C@@H]2CS[C@H](CO)O2)c(=O)n1 [LAMIVUDINE] , its CC50 at 120 h was > 87.2 µM

Recorded result, `Cc1cc(C#N)cc(C)c1Oc1nc(NC2CCN(CC(=O)N3CCOCC3)CC2)nc2c1CCC2` , CC50 at 120 h: 73.5 µM

Sure, the documented CC50 at 120 h for `Cc1cc(C#N)cc(C)c1Oc1nc(NC2CCN(CCN3CCOCC3)CC2)nc2ccccc12` is 26 µM

* * *

# experiment: Selectivity index, ratio of CC50 for human MT4 cells to EC50 for antiviral activity against HIV1 RES056 infected in human MT4 cells
# Assay type: toxicity, cell-based
# experimental.parameters: read-out: Ratio CC50/EC50
# selectivity ratio values compiled below

Known results for molecules:
Cc1cc(C#N)cc(C)c1Oc1nc(NC2CCN(CCN3CCOCC3)CC2)nc2ccsc12 :: < 1
Cc1cc(C#N)cc(C)c1Oc1nc(NC2CCN(CC(=O)N3CCOCC3)CC2)nc2c1COC2 :: < 1
Cc1cc(C#N)cc(C)c1Oc1ccnc(NC2CCN(CCN3CCOCC3)CC2)n1 :: < 1

Entry under test: `Cc1cc(C#N)cc(C)c1Oc1nc(NC2CCN(CC(=O)N3CCOCC3)CC2)nc2ccsc12` . Its selectivity ratio was < 1

# selectivity ratio of `Cc1cc(C#N)cc(C)c1Oc1nc(NC2CCN(CC(=O)N3CCOCC3)CC2)nc2sccc12` = < 1

Value of measured selectivity ratio for the entry `Cc1cc(C#N)cc(C)c1Oc1nc(NC2CCN(CCN3CCOCC3)CC2)nc2sccc12` : < 1

Looking up `Cc1cc(C#N)cc(C)c1Oc1ccnc(NC2CCN(CC(=O)N3CCOCC3)CC2)n1` , I see its selectivity ratio listed as < 1

`COc1cc2nc(NC3CCN(CCN4CCOCC4)CC3)nc(Oc3c(C)cc(C#N)cc3C)c2cc1OC` yielded selectivity ratio of < 1

`Cc1cc(C#N)cc(C)c1Oc1nc(NC2CCN(CC(=O)N3CCOCC3)CC2)nc2c1CSC2` has a reported selectivity ratio of < 1

* * *

# experiment: Solubility of compound in water at pH 2
# Format: physicochemical
# solubility annotations
// return numeric value only (unit: µg/mL, not printed)

solubility in this record for `Cc1cc(C#N)cc(C)c1Oc1nc(NC2CCN(CC(=O)N3CCOCC3)CC2)nc2c1SCC2` : 248

For `Cc1cc(C#N)cc(C)c1Oc1nc(NC2CCN(CCN3CCOCC3)CC2)nc2sccc12` the molecule record lists solubility as 243

Entry under test: `Cc1cc(C#N)cc(C)c1Oc1nc(NC2CCN(CCN3CCOCC3)CC2)nc2ccsc12` . Its solubility was 207

Looking up `Cc1cc(C#N)cc(C)c1Oc1nc(NC2CCN(CC(=O)N3CCOCC3)CC2)nc2sccc12` , I found its solubility recorded as 228
